Test system: cancer patients
Experiment: Test Example 4: correlation between vaccination with individual peptides (or peptide sets) and OS, Cox proportional hazards regression
Format: in vivo, human
Conditions: 2,085 advanced cancer patients (stage IV+recurrence)
This section presents sequences with their documented median OS of vaccinated cases values.
Numeric answer only, unit months assumed.

Previously resolved entries follow.
LYCESVHNF (listed as Homo sapiens) [PAP-213] :: 14.9
ALVEFEDVL (listed as Homo sapiens) [HNRPL-140] :: 12.1
HYTNASDGL (listed as Homo sapiens) [Lck-208] :: 17.1
TFDYLRSVL (listed as Homo sapiens) [Lck-486] :: 11.1

// below: median OS of vaccinated cases requested for another sequence
DYVREHKDNI (listed as Homo sapiens) [EGFR-800] yielded median OS of vaccinated cases of 13.1

###

This section presents sequences with their documented Vaccinate cases (mOS) values.
Tested on: cancer patients
Test: Test Example 4: correlation between vaccination with individual peptides (or peptide sets) and OS, Cox proportional hazards regression
Type: in vivo, human
Conditions: Table 18; all 2,588 cases; median OS of patients under PPV containing the peptide

Previously resolved entries follow.
DLLSHAFFA (listed as Homo sapiens) [MAP-432] :: 375(11.1) M
DVWSFGILL (listed as Homo sapiens) [Lck-422] :: 92(12.0) M
LYCESVHNF (listed as Homo sapiens) [PAP-213] :: 279(16.6) M

HYRKWIKDTI (listed as Homo sapiens) [PSA-248] yielded Vaccinate cases (mOS) of 283(13.8) M

VYDYNCHVDL (listed as Homo sapiens) [SART3-109] yielded Vaccinate cases (mOS) of 474(12.3) M

VIQNLERGYR (listed as Homo sapiens) [Lck-449] yielded Vaccinate cases (mOS) of 127(13.7) M

RLAEYQAYI (listed as Homo sapiens) [SART3-309] yielded Vaccinate cases (mOS) of 328(12.1) M

QIRPIFSNR (listed as Homo sapiens) [SART3-734] yielded Vaccinate cases (mOS) of 625(10.9) M

HYTNASDGL (listed as Homo sapiens) [Lck-208] yielded Vaccinate cases (mOS) of 134(19.7) M

AYDFLYNYL (listed as Homo sapiens) [SART2-161] yielded Vaccinate cases (mOS) of 195(12.3) M

###

This section presents sequences with their documented Pre-vaccination IgG Median (FIU) values.
System: anti-peptide IgG in plasma
Assay: Test Example 4: peptide-specific IgG titer pre and post vaccination, bead-based multiplexed Luminex assay
Assay type: in vivo, human
Settings: Table 20; patients showing both <64% neutrophil and ≥26% lymphocyte
Numeric answer only, unit FIU assumed.

Previously resolved entries follow.
TYSVSFDSL (listed as Homo sapiens) [PSMA-624] :: 26
TFDYLRSVL (listed as Homo sapiens) [Lck-486] :: 40
DVWSFGILL (listed as Homo sapiens) [Lck-422] :: 33
QIRPIFSNR (listed as Homo sapiens) [SART3-734] :: 96
DYVREHKDNI (listed as Homo sapiens) [EGFR-800] :: 32
DYSARWNEI (listed as Homo sapiens) [SART2-93] :: 64

// below: Pre-vaccination IgG Median (FIU) requested for another sequence
The value of Pre-vaccination IgG Median (FIU) recorded for ILEQSGEWWK (listed as Homo sapiens) [Lck-90] when tested on anti-peptide IgG in plasma reads 43
